- Target Under Test: human a-thrombin (Homo sapiens)
- Construct: human a-thrombin
- Method Description: In vitro assay for determining proteinase inhibition: human a-thrombin
- Format: biochemical
pKi: −log10 of the molar value.

Smiles Code: N[C@H]1CC[C@H](CNC(=O)[C@@H]2CCCN2C(=O)C2(O)c3ccccc3Sc3ccccc32)CC1
pKi: 8.52
//
Smiles Code: N[C@H]1CC[C@H](CNC(=O)[C@@H]2CCCN2C(=O)[C@@H](Cc2ccccc2)NS(=O)(=O)Cc2ccccc2)CC1
pKi: 9.40

* * *

- Target Under Test: human a-thrombin (Homo sapiens, UniProt P00734)
- Construct: human a-thrombin
- Method Description: In vitro assay for determining proteinase inhibition: human a-thrombin
- Assay type: biochemical
- Test Context: Table 1, part headed Ki (NM); read-out: Ki vs thrombin
pKi: −log10 of the molar value.
Measure Name: pKi

Molecule: CC(C)(C)C[C@@H](NC(=O)OCc1ccccc1)C(=O)N1CCC[C@H]1C(=O)NC[C@H]1CC[C@H](N)CC1 [CbzNH, CH2 -tBu]
Measure Name: pKi
Reported Result: 8.64
//
Molecule: N[C@H]1CC[C@H](CNC(=O)[C@@H]2CCCN2C(=O)[C@@H](Cc2c[nH]c3ccccc23)NC(=O)OCc2ccccc2)CC1
Measure Name: pKi
Reported Result: 7.80
//
Molecule: CC(C)(C)OC(=O)N[C@@H](C(=O)N1CCC[C@H]1C(=O)NC[C@H]1CC[C@H](N)CC1)c1ccccc1
Measure Name: pKi
Reported Result: 8.17
//
Molecule: CC(C)(C)OC(=O)N[C@H](CC1CCCCC1)C(=O)N1CCC[C@H]1C(=O)NC[C@H]1CC[C@H](N)CC1
Measure Name: pKi
Reported Result: 7.92
//
Molecule: CC(C)(C)OC(=O)N[C@H](CCc1ccccc1)C(=O)N1CCC[C@H]1C(=O)NC[C@H]1CC[C@H](N)CC1
Measure Name: pKi
Reported Result: 7.30
//
Molecule: CC(C)(C)OC[C@@H](NC(=O)OC(C)(C)C)C(=O)N1CCC[C@H]1C(=O)NC[C@H]1CC[C@H](N)CC1 [BocNH, CH2 O-tBu]
Measure Name: pKi
Reported Result: 8.22
//
Molecule: N[C@H]1CC[C@H](CNC(=O)[C@@H]2CCCN2C(=O)[C@@H](Cc2ccccc2)NC(=O)OCc2ccncc2)CC1
Measure Name: pKi
Reported Result: 7.82

* * *

As shown below, each of these compounds has a reported log10(Ki) value.
- Target Under Test: human a-thrombin (Homo sapiens)
- Construct: human a-thrombin
- Method Description: In vitro assay for determining proteinase inhibition: human a-thrombin
- Format: biochemical
- Test Context: Table 2, lower part; head Ki(nM) without target; read-out: Ki
Measure Name: log10(Ki) (log10 of the value in nM)

Compound: C[C@@H](N[C@@H](C(=O)N1CCC[C@H]1C(=O)NC[C@H]1CC[C@H](N)CC1)C(c1ccccc1)c1ccccc1)C(=O)O [drawing 41]
log10(Ki): -1.30
//
Compound: N[C@H]1CC[C@H](CNC(=O)[C@@H]2CCCN2C(=O)C2(O)c3ccccc3-c3ccccc32)CC1
log10(Ki): 0.18
//
Compound: N[C@H]1CC[C@H](CNC(=O)[C@@H]2CCCN2C(=O)[C@H](NCC(=O)O)C(c2ccc(Cl)cc2)c2ccc(Cl)cc2)CC1
log10(Ki): -0.89
//
Compound: N[C@H]1CC[C@H](CNC(=O)[C@@H]2CCCN2C(=O)[C@H](NCC(=O)O)C(c2ccccc2)c2ccccc2)CC1 [drawing 39]
log10(Ki): -0.77
//
Compound: N[C@H]1CC[C@H](CNC(=O)[C@@H]2CCCN2C(=O)C2COc3ccccc3O2)CC1 (some centres unmarked)
log10(Ki): 1.74

* * *

As shown below, each of these compounds has a reported Ki value.
- Target Under Test: human a-thrombin (Homo sapiens, UniProt P00734)
- Construct: human a-thrombin
- Method Description: In vitro assay for determining proteinase inhibition: human a-thrombin
- Format: biochemical
- Test Context: Table 2; read-out: Ki vs thrombin

Compound: N[C@H]1CC[C@H](CNC(=O)[C@@H]2CCCN2C(=O)[C@@H](Cc2ccccc2)NCC(=O)O)CC1
Display Unit: nM
Ki: 1.3

Compound: CC1(C)C2CCC1(CS(=O)(=O)N[C@H](CC1CCCCC1)C(=O)N1CCC[C@H]1C(=O)NC[C@H]1CC[C@H](N)CC1)C(=O)C2 (stereo partly shown)
Display Unit: nM
Ki: 0.1

Compound: CC(C)(C)OC(=O)N[C@@H](C(=O)N1CCC[C@H]1C(=O)NC[C@H]1CC[C@H](N)CC1)C(c1ccccc1)c1ccccc1
Display Unit: nM
Ki: 0.102

Compound: N[C@H]1CC[C@H](CNC(=O)[C@@H]2CCCN2C(=O)CC(c2ccccc2)c2ccccc2)CC1
Display Unit: nM
Ki: 2

Compound: CC(C)(C)C[C@@H](NS(=O)(=O)Cc1ccccc1)C(=O)N1CCC[C@H]1C(=O)NC[C@H]1CC[C@H](N)CC1
Display Unit: nM
Ki: 0.4

Compound: N[C@@H](C(=O)N1CCC[C@H]1C(=O)NC[C@H]1CC[C@H](N)CC1)C(c1ccccc1)c1ccccc1
Display Unit: nM
Ki: 0.12

Compound: CC(C)(C)OC[C@@H](NS(=O)(=O)CC12CCC(CC1=O)C2(C)C)C(=O)N1CCC[C@H]1C(=O)NC[C@H]1CC[C@H](N)CC1 (stereo partly shown)
Display Unit: nM
Ki: 0.05

* * *

- Target Under Test: human a-thrombin (Homo sapiens, UniProt P00734)
- Construct: human a-thrombin
- Method Description: In vitro assay for determining proteinase inhibition: human a-thrombin
- Format: biochemical
- Test Context: Table 1; read-out: Ki vs Thrombin
Values of Ki strictly less than 8 nM map to satisfied, and values of at least 8 nM map to not satisfied.

Compound: N[C@H]1CC[C@H](CNC(=O)[C@@H]2CCCN2C(=O)CCC2CCCCC2)CC1 [C6 H11 CH2, H]
Label Class: not satisfied
--
Compound: CC(C)(C)OC(=O)N[C@H](Cc1ccccc1)C(=O)N1CCC[C@H]1C(=O)NC[C@H]1CC[C@H](N)CC1
Label Class: not satisfied
--
Compound: N[C@H](Cc1ccc(Cl)c(Cl)c1)C(=O)N1CCC[C@H]1C(=O)NC[C@H]1CC[C@H](N)CC1 [3,4-Cl2PhCH2, NH2]
Label Class: satisfied
--
Compound: N[C@H]1CC[C@H](CNC(=O)[C@@H]2CCCN2C(=O)[C@@H](Cc2ccccc2)NCCc2ccccc2)CC1
Label Class: satisfied
--
Compound: CN[C@H](CC1CCCCC1)C(=O)N1CCC[C@H]1C(=O)NC[C@H]1CC[C@H](N)CC1
Label Class: satisfied
--
Compound: N[C@H](Cc1cccnc1)C(=O)N1CCC[C@H]1C(=O)NC[C@H]1CC[C@H](N)CC1
Label Class: not satisfied
--
Compound: N[C@H]1CC[C@H](CNC(=O)[C@@H]2CCCN2C(=O)CCc2ccc(Cl)c(Cl)c2)CC1 [3,4-Cl2PhCH2, H]
Label Class: not satisfied
--
Compound: CC(C)(C)OC(=O)N[C@@H](C(=O)N1CCC[C@H]1C(=O)NC[C@H]1CC[C@H](N)CC1)C(OC(C)(C)C)c1ccccc1 (some centres unmarked)
Label Class: not satisfied
--
Compound: CS(=O)(=O)N[C@H](Cc1ccccc1)C(=O)N1CCC[C@H]1C(=O)NC[C@H]1CC[C@H](N)CC1 [PhCH2, CH3 SO2 NH]
Label Class: not satisfied
--
Compound: CC(=O)N1CCC[C@H]1C(=O)NC[C@H]1CC[C@H](N)CC1 [H, H]
Label Class: not satisfied
--
Compound: CN[C@H](Cc1ccc(Cl)c(Cl)c1)C(=O)N1CCC[C@H]1C(=O)NC[C@H]1CC[C@H](N)CC1 [3,4-Cl2PhCH2, CH3 NH]
Label Class: satisfied
--
Compound: N[C@H]1CC[C@H](CNC(=O)[C@@H]2CCCN2C(=O)[C@@H](CC2CCCCC2)NS(=O)(=O)CC(F)(F)F)CC1
Label Class: satisfied
--
Compound: N[C@H](Cc1ccc2ccccc2c1)C(=O)N1CCC[C@H]1C(=O)NC[C@H]1CC[C@H](N)CC1
Label Class: not satisfied
--
Compound: N[C@H]1CC[C@H](CNC(=O)[C@@H]2CCCN2C(=O)[C@@H](Cc2ccccc2)NC(=O)OCc2ccccc2)CC1
Label Class: satisfied
--
Compound: N[C@H](Cc1ccccc1)C(=O)N1CCC[C@H]1C(=O)NC[C@H]1CC[C@H](N)CC1 [PhCH2, NH2]
Label Class: satisfied
--
Compound: N[C@H]1CC[C@H](CNC(=O)[C@@H]2CCCN2C(=O)CCc2ccccc2)CC1 [PhCH2, H]
Label Class: not satisfied
--
Compound: N[C@H]1CC[C@H](CNC(=O)[C@@H]2CCCN2C(=O)C2Cc3ccccc3CN2)CC1 (some centres unmarked)
Label Class: not satisfied
--
Compound: CC(=O)N[C@H](Cc1ccccc1)C(=O)N1CCC[C@H]1C(=O)NC[C@H]1CC[C@H](N)CC1
Label Class: not satisfied
--
Compound: N[C@H]1CC[C@H](CNC(=O)[C@@H]2CCCN2C(=O)[C@H](O)Cc2ccccc2)CC1
Label Class: not satisfied
